# System: tumor endothelial cells (LL/2 lung cancer tumor)
# METHOD: Lung LL2 ex vivo model of tumor angiogenesis
# Type: cell-based, mouse
# EXPERIMENTAL CONTEXT: Mus musculus, Endothelial cell, 48 h, read-out: Cell death
# Protocol: This example describes a procedure to prepare a primary tumor angiogenesis model for assessing the efficacy of anti-cancer candidate agents. 1. […] 9. When the assay is ready to be analyzed for cell death (e.g., 48 hours after drug addition), prepare the dye mixture by mixing 6 μL of green dye to stain live cells (5 mg/mL Fluorescein diacetate or FDA in DMSO) with 30 μL of red dye (2.5 mg/mL Propidium iodide or PI in PBS) to stain dead cells in an Eppendorf tube. […]
ATTRIBUTE MEASURED: cytotoxicity at 40 µM

compound=CCCCOc1ccc(S(=O)(=O)c2cnc3ccc(OC(F)(F)F)cc3c2N2CCS(=O)(=O)CC2)cc1 attribute_measured="cytotoxicity at 40 µM" readout_value=30%
compound=CCc1ccc(S(=O)(=O)c2cnc3ccc(OC(F)(F)F)cc3c2NN2CCN(C)CC2)cc1 attribute_measured="cytotoxicity at 40 µM" readout_value=90%
compound=CCCCOc1ccc(S(=O)(=O)c2cnc3ccc(OC(F)(F)F)cc3c2N2CC[S+]([O-])CC2)cc1 attribute_measured="cytotoxicity at 40 µM" readout_value=20%
compound="CCCCOc1ccc(S(=O)(=O)c2cnc3ccc([S+](C)[O-])cc3c2N2CCC(N3CCC(O)(c4ccccc4)CC3)CC2)cc1 (stereo not shown)" attribute_measured="cytotoxicity at 40 µM" readout_value=100%
compound=CCc1ccc(S(=O)(=O)c2cnc3ccc([N+](=O)[O-])cc3c2N(CC)CC)cc1 attribute_measured="cytotoxicity at 40 µM" readout_value=40%
compound=CCc1ccc(S(=O)(=O)c2cnc3ccc(OC(F)(F)F)cc3c2N2CCCN(CC(=O)O)CC2)cc1 attribute_measured="cytotoxicity at 40 µM" readout_value=30%
compound="CCOC(=O)c1ccc2ncc(S(=O)(=O)c3ccc(OC)cc3)c(N3CCC(N4CCCC(O)C4)CC3)c2c1 (stereo not shown)" attribute_measured="cytotoxicity at 40 µM" readout_value=30%

---

# MEASURED TARGET: extracellular domain of PLXDC1 (PLXDC1-ECD) (Homo sapiens)
# Construct: the extracellular domain of PLXDC1 (PLXDC1-ECD)
# Sequence (Q8IUK5 19-426 limits assumed): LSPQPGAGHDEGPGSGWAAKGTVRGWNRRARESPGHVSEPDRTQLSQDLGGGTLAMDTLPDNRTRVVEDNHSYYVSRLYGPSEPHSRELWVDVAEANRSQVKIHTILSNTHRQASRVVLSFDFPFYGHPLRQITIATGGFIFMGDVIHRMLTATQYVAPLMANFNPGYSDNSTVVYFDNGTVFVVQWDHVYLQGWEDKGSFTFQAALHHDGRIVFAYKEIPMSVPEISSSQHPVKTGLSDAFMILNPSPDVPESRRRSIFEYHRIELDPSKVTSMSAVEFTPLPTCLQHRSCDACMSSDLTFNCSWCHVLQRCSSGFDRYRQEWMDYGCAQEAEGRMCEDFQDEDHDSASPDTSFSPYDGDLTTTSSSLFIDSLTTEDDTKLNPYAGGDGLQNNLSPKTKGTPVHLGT
# METHOD: Binding to PLXDC1 extracellular domain by suppression of tryptophan fluorescence
# EXPERIMENTAL CONTEXT: estimated from dose-dependent suppression of PLXDC1-ECD tryptophan fluorescence
pKd: −log10 of the molar value.
ATTRIBUTE MEASURED: pKd

compound="CCCCCCCCCCCCCCOc1ccc(S(=O)(=O)c2cnc3ccc([S+](C)[O-])cc3c2N2CCC(N3CCC(N4CCN(C)CC4)CC3)CC2)cc1 (stereo not shown)" measured_target="extracellular domain of PLXDC1 (PLXDC1-ECD) (Homo sapiens)" attribute_measured=pKd readout_value=7.30

---

# Test system: tumor endothelial cells (LL/2 lung cancer tumor)
# METHOD: Lung LL2 ex vivo model of tumor angiogenesis
# Assay type: cell-based, mouse
# EXPERIMENTAL CONTEXT: Mus musculus, Endothelial cell, 48 h, read-out: Cell death
ATTRIBUTE MEASURED: cytotoxicity at 40 µM (%)

compound=COc1ccc(S(=O)(=O)c2cnc3cc(OC)c(OC)cc3c2N2CCC(N3CCCC3=O)CC2)cc1 attribute_measured="cytotoxicity at 40 µM" unit=% readout_value=40
compound=COc1ccc(S(=O)(=O)c2cnc3ccc(OC(F)(F)F)cc3c2N2CCC(N3CCCCC3)CC2)cc1OC attribute_measured="cytotoxicity at 40 µM" unit=% readout_value=20
compound=CCCCOc1ccc(S(=O)(=O)c2cnc3ccc(C(=O)OCC)cc3c2N2CCCN(CCN3CCCC3)CC2)cc1 attribute_measured="cytotoxicity at 40 µM" unit=% readout_value=100
compound=COc1ccc(S(=O)(=O)c2cnc3ccc(S(C)(=O)=O)cc3c2NN2CCN(C)CC2)cc1 attribute_measured="cytotoxicity at 40 µM" unit=% readout_value=5
compound="COc1ccc(S(=O)(=O)c2cnc3ccc([S+](C)[O-])cc3c2NN2CCN(C)CC2)cc1 (stereo not shown)" attribute_measured="cytotoxicity at 40 µM" unit=% readout_value=10
compound=CCCCOc1ccc(S(=O)(=O)c2cnc3ccc(C(=O)N(CC)CC)cc3c2N2CCCN(C)CC2)cc1 attribute_measured="cytotoxicity at 40 µM" unit=% readout_value=30
compound=CCCCOc1ccc(S(=O)(=O)c2cnc3ccc(S(C)(=O)=O)cc3c2N2CCCN(C)CC2)cc1 attribute_measured="cytotoxicity at 40 µM" unit=% readout_value=95

---

# System: tumor endothelial cells (LL/2 lung cancer tumor)
# METHOD: Lung LL2 ex vivo model of tumor angiogenesis
# Assay type: cell-based, mouse
# EXPERIMENTAL CONTEXT: Lung LL2 ex vivo; Conc. 20 μm; (24 hrs)
ATTRIBUTE MEASURED: Cell death (24 hrs)

molecule="CCCCCCCCCCOc1ccc(S(=O)(=O)c2cnc3ccc([S+](C)[O-])cc3c2N2CCC(N3CCC(N4CCOCC4)CC3)CC2)cc1 (stereo not shown)" readout_value=0%
molecule="CCCCCCCCCCOc1ccc(S(=O)(=O)c2cnc3ccc([S+](C)[O-])cc3c2N2CCC(N3CCC(N4CCN(CCO)CC4)CC3)CC2)cc1 (stereo not shown)" readout_value=10%
molecule="CCCCCCCCCCOc1ccc(S(=O)(=O)c2cnc3ccc([S+](C)[O-])cc3c2N2CCC(N3CCC(N4CCCN(C)CC4)CC3)CC2)cc1 (stereo not shown)" readout_value=40%
molecule="CCCCCCCCCCOc1ccc(S(=O)(=O)c2cnc3ccc([S+](C)[O-])cc3c2N2CCC(N3CCN(CCO)CC3)CC2)cc1F (stereo not shown)" readout_value=10%

---

# Tested on: tumor endothelial cells (LL/2 lung cancer tumor)
# METHOD: Lung LL2 ex vivo model of tumor angiogenesis
# Format: cell-based, mouse
# EXPERIMENTAL CONTEXT: Mus musculus, Endothelial cell, 48 h, read-out: Cell death
# Protocol: This example describes a procedure to prepare a primary tumor angiogenesis model for assessing the efficacy of anti-cancer candidate agents. 1. […] 9. When the assay is ready to be analyzed for cell death (e.g., 48 hours after drug addition), prepare the dye mixture by mixing 6 μL of green dye to stain live cells (5 mg/mL Fluorescein diacetate or FDA in DMSO) with 30 μL of red dye (2.5 mg/mL Propidium iodide or PI in PBS) to stain dead cells in an Eppendorf tube. […]
ATTRIBUTE MEASURED: cytotoxicity at 40 µM

compound="COc1ccc(S(=O)(=O)c2cnc3ccc(OC(F)(F)F)cc3c2N(CCO)CCO)cc1OC [compound 72]" measured_target="tumor endothelial cells (LL/2 lung cancer tumor)" readout_value=20%
compound="O=[N+]([O-])c1ccc(S(=O)(=O)c2cnc3ccc(OC(F)(F)F)cc3c2N2CCC(N3CCCCC3)CC2)cc1 [compound 59]" measured_target="tumor endothelial cells (LL/2 lung cancer tumor)" readout_value=40%
compound="CCOC(=O)c1ccc2ncc(S(=O)(=O)c3ccc(OC)cc3)c(N3CCC(N4CCN(C)CC4)CC3)c2c1 [compound 171]" measured_target="tumor endothelial cells (LL/2 lung cancer tumor)" readout_value=40%
compound="CCCCOc1ccc(S(=O)(=O)c2cnc3ccc(C(=O)OCC)cc3c2N2CCC(N3CCN(CCO)CC3)CC2)cc1 [compound 214]" measured_target="tumor endothelial cells (LL/2 lung cancer tumor)" readout_value=100%

---

# System: tumor endothelial cells (LL/2 lung cancer tumor)
# METHOD: Lung LL2 ex vivo model of tumor angiogenesis
# Type: cell-based, mouse
# EXPERIMENTAL CONTEXT: Mus musculus, Endothelial cell, 48 h, read-out: Cell death
ATTRIBUTE MEASURED: cytotoxicity at 40 µM

compound=CCCCOc1ccc(S(=O)(=O)c2cnc3ccc(C(=O)N(CC)CC)cc3c2N2CCC(N3CCCCC3)CC2)cc1 attribute_measured="cytotoxicity at 40 µM" readout_value=30%
compound=CCc1ccc(S(=O)(=O)c2cnc3ccc(OC(F)(F)F)cc3c2N(CC)CC)cc1 attribute_measured="cytotoxicity at 40 µM" readout_value=0%
compound=COc1ccc(S(=O)(=O)c2cnc3cc(OC)c(OC)cc3c2N2CCCN(C3CCS(=O)(=O)CC3)CC2)cc1 attribute_measured="cytotoxicity at 40 µM" readout_value=50%
compound=CCOC(=O)c1ccc2ncc(S(=O)(=O)c3ccc(CC)cc3)c(N3CCC(N4CCCCC4)CC3)c2c1 attribute_measured="cytotoxicity at 40 µM" readout_value=100%
compound=CCc1ccc(S(=O)(=O)c2cnc3ccc(C(=O)O)cc3c2N2CCC(N3CCCCC3)CC2)cc1 attribute_measured="cytotoxicity at 40 µM" readout_value=10%
compound="CNC(=O)c1ccc2ncc(S(=O)(=O)c3ccc(OC)cc3)c(N3CCC(N4CCCC4CO)CC3)c2c1 (stereo not drawn)" attribute_measured="cytotoxicity at 40 µM" readout_value=0%
compound=COc1ccc(S(=O)(=O)c2cnc3ccc(OC(F)(F)F)cc3c2N2CCC(O)CC2)cc1OC attribute_measured="cytotoxicity at 40 µM" readout_value=50%
compound=CCCCOc1ccc(S(=O)(=O)c2cnc3ccc(SC)cc3c2N2CCC(N3CCCCC3)CC2)cc1 attribute_measured="cytotoxicity at 40 µM" readout_value=100%
compound="COc1ccc(S(=O)(=O)c2cnc3cc(OC)c(OC)cc3c2N2CCC3C(COCCN3CC(C)C)C2)cc1 (stereo not drawn)" attribute_measured="cytotoxicity at 40 µM" readout_value=60%
compound=CCc1ccc(S(=O)(=O)c2cnc3ccc(C(=O)O)cc3c2N2CCC(O)CC2)cc1 attribute_measured="cytotoxicity at 40 µM" readout_value=10%
compound=CCCCOc1ccc(S(=O)(=O)c2cnc3ccc(C(=O)OCC)cc3c2N2CCC(N3CCCCC3)CC2)cc1 attribute_measured="cytotoxicity at 40 µM" readout_value=100%
compound=CCc1ccc(S(=O)(=O)c2cnc3ccc(OC(F)(F)F)cc3c2NCCO)cc1 attribute_measured="cytotoxicity at 40 µM" readout_value=10%
compound=CCCCOc1ccc(S(=O)(=O)c2cnc3ccc(SC)cc3c2N2CCC(N3CCSCC3)CC2)cc1 attribute_measured="cytotoxicity at 40 µM" readout_value=20%
compound=COc1ccc(S(=O)(=O)c2cnc3ccc(OC(F)(F)F)cc3c2NN2CCN(C)CC2)cc1OC attribute_measured="cytotoxicity at 40 µM" readout_value=70%
compound="CCCCCCCOc1ccc(S(=O)(=O)c2cnc3ccc([S+](C)[O-])cc3c2N2CCC(N3CCCCC3)CC2)cc1 (stereo not drawn)" attribute_measured="cytotoxicity at 40 µM" readout_value=100%
compound=COc1ccc(S(=O)(=O)c2cnc3ccc(C(=O)N(C)C)cc3c2N2CCCN(CC(=O)N(C)C)CC2)cc1 attribute_measured="cytotoxicity at 40 µM" readout_value=0%
compound="COc1ccc(S(=O)(=O)c2cnc3cc(OC)c(OC)cc3c2N2CCC(N3CCCC3CO)CC2)cc1 (stereo not drawn)" attribute_measured="cytotoxicity at 40 µM" readout_value=30%
compound="CCCCOc1ccc(S(=O)(=O)c2cnc3ccc([S+](C)[O-])cc3c2N2CCC(N3CCSCC3)CC2)cc1 (stereo not drawn)" attribute_measured="cytotoxicity at 40 µM" readout_value=40%
compound=CCCCOc1ccc(S(=O)(=O)c2cnc3ccc(C(=O)NC(C)C)cc3c2N2CCCN(C)CC2)cc1 attribute_measured="cytotoxicity at 40 µM" readout_value=60%
compound=CCCCOc1ccc(S(=O)(=O)c2cnc3ccc(OC(F)(F)F)cc3c2N2CCSCC2)cc1 attribute_measured="cytotoxicity at 40 µM" readout_value=30%
compound="CCCCCCCOc1ccc(S(=O)(=O)c2cnc3ccc([S+](C)[O-])cc3c2N2CCCN(C)CC2)cc1 (stereo not drawn)" attribute_measured="cytotoxicity at 40 µM" readout_value=100%
compound=COc1ccc(S(=O)(=O)c2cnc3cc(OC)c(OC)cc3c2N2CCC(N3CCCCC3)CC2)cc1 attribute_measured="cytotoxicity at 40 µM" readout_value=30%
compound=CCCCOc1ccc(S(=O)(=O)c2cnc3ccc(SC)cc3c2N2CCC(N3CCC(O)(c4ccccc4)CC3)CC2)cc1 attribute_measured="cytotoxicity at 40 µM" readout_value=10%
compound=CCCCOc1ccc(S(=O)(=O)c2cnc3ccc(SC)cc3c2N2CCC(N3CCN(c4ccc(F)cc4)CC3)CC2)cc1 attribute_measured="cytotoxicity at 40 µM" readout_value=5%
compound=CCN(CC)C(=O)c1ccc2ncc(S(=O)(=O)c3ccc(OC)cc3)c(N3CCCN(C)CC3)c2c1 attribute_measured="cytotoxicity at 40 µM" readout_value=10%
compound=CCc1ccc(S(=O)(=O)c2cnc3ccc(OC(F)(F)F)cc3c2N2CCCN(CCN(CC)CC)CC2)cc1 attribute_measured="cytotoxicity at 40 µM" readout_value=100%
compound=CCN(CC)CCOc1ccc(S(=O)(=O)c2cnc3ccc(SC)cc3c2N2CCCN(C)CC2)cc1 attribute_measured="cytotoxicity at 40 µM" readout_value=30%
compound=N#Cc1ccc(S(=O)(=O)c2cnc3ccc(OC(F)(F)F)cc3c2N2CCC(N3CCCCC3)CC2)cc1 attribute_measured="cytotoxicity at 40 µM" readout_value=50%
compound="CCc1ccc(S(=O)(=O)c2cnc3ccc(OC(F)(F)F)cc3c2N2CCCC(O)C2)cc1 (stereo not drawn)" attribute_measured="cytotoxicity at 40 µM" readout_value=60%
compound=COc1ccc(S(=O)(=O)c2cnc3cc(OC)c(OC)cc3c2N2CCCN(CCO)CC2)cc1 attribute_measured="cytotoxicity at 40 µM" readout_value=30%
